Measured Target: Cellular tumor antigen p53 (Homo sapiens)
Assay Text: nuclear p53 accumulation, HPV+ cells – imaging, p53-positive nuclei imaging, 24 h, 48 h (AID 1508601)
Run Conditions: 24/48 h, Library stock concentration: 10 mM
Screen size: about 5,700 compounds; about 85 (1%) were called active. Cut-off read from the data, not from the text of the source: active = p53-positive nuclei above about 36% (passing the limit was not always enough); inactive = the rest. The list comes from a sample in which actives are over-represented; it also holds close analogues and randomly drawn compounds.
Possible outcomes: 1 (active), 0 (inactive)

Compound: CN1CC[C@H](c2c(O)cc(O)c3c(=O)cc(-c4ccccc4Cl)oc23)C(O)C1 (stereo not given in full)
Measured Target: Cellular tumor antigen p53 (Homo sapiens)
Assigned Category: 0
--
Compound: CCC(=O)N1CCN(c2ccc(-n3c(=O)ccc4cnc5ccc(-c6cnc7ccccc7c6)cc5c43)cc2C(F)(F)F)CC1
Measured Target: Cellular tumor antigen p53 (Homo sapiens)
Assigned Category: 0
--
Compound: O=C(O)C=Cc1ccc(Cn2ccnc2)cc1
Measured Target: Cellular tumor antigen p53 (Homo sapiens)
Assigned Category: 0
--
Compound: CC(=O)OC1C(=O)[C@]2(C)C(O)CC3OC[C@@]3(OC(C)=O)C2C(OC(=O)c2ccccc2)[C@]2(O)CC(OC(=O)C(O)C(NC(=O)c3ccccc3)c3ccccc3)C(C)=C1C2(C)C (stereo not given in full)
Measured Target: Cellular tumor antigen p53 (Homo sapiens)
Assigned Category: 0
--
Compound: Nc1ccn(C2C=C(CO)C(O)C2O)c(=O)n1 (stereo not given)
Measured Target: Cellular tumor antigen p53 (Homo sapiens)
Assigned Category: 0
--
Compound: CSCCC(NC=O)C(=O)NC(CC(C)C)C(=O)NC(Cc1ccccc1)C(=O)O (stereo not given)
Measured Target: Cellular tumor antigen p53 (Homo sapiens)
Assigned Category: 0
--
Compound: CCc1cnn2c(NCc3ccc[n+]([O-])c3)cc(N3CCCCC3CCO)nc12 (stereo not given)
Measured Target: Cellular tumor antigen p53 (Homo sapiens)
Assigned Category: 0
--
Compound: CN1CCN(C(=S)SSC(=S)N2CCN(C)CC2)CC1
Measured Target: Cellular tumor antigen p53 (Homo sapiens)
Assigned Category: 1
--
Compound: Fc1cc(-c2ccnc(Nc3ccc(-n4cnc(N5CCOCC5)n4)cc3)n2)cc(N2CCOCC2)c1
Measured Target: Cellular tumor antigen p53 (Homo sapiens)
Assigned Category: 0
--
Compound: CS(=O)(=O)c1ccc(C(CC2CCCC2)C(=O)Nc2nccs2)cc1 (stereo not given)
Measured Target: Cellular tumor antigen p53 (Homo sapiens)
Assigned Category: 0
--
Compound: CCN1CCN(Cc2ccc(NC(=O)c3ccc(C)c(Oc4ccnc5[nH]ccc45)c3)cc2C(F)(F)F)CC1
Measured Target: Cellular tumor antigen p53 (Homo sapiens)
Assigned Category: 0
--
Compound: CC(C)C(N)C(=O)NC(Cc1ccccc1)C(=O)O (stereo not given)
Measured Target: Cellular tumor antigen p53 (Homo sapiens)
Assigned Category: 0
--
Compound: CCN1CCN(Cc2ccc(Nc3ncc4c(n3)N(C)c3ccccc3C(=O)N4C)cc2C(F)(F)F)CC1
Measured Target: Cellular tumor antigen p53 (Homo sapiens)
Assigned Category: 0
--
Compound: CN(CCC(Oc1ccc(-c2ccccc2)cc1)c1ccc(F)cc1)CC(=O)O (stereo not given)
Measured Target: Cellular tumor antigen p53 (Homo sapiens)
Assigned Category: 0
--
Compound: COc1ccc(CC(NC(=O)C(C)NC(=O)CN2CCOCC2)C(=O)NC(Cc2ccccc2)C(=O)[C@@]2(C)CO2)cc1 (stereo not given in full)
Measured Target: Cellular tumor antigen p53 (Homo sapiens)
Assigned Category: 1
--
Compound: O=C1SC(=Cc2ccc(OCc3cccc(B(O)O)c3)cc2)C(=O)N1Cc1ccc(F)cc1
Measured Target: Cellular tumor antigen p53 (Homo sapiens)
Assigned Category: 0
--
Compound: COC(=O)N1C(=O)[C@](c2ccccc2)(C2CCCC2)N1C(=O)OC
Measured Target: Cellular tumor antigen p53 (Homo sapiens)
Assigned Category: 0
--
Compound: COC(=O)C(NC(=O)c1cc(-c2ccccc2)nc2ccccc12)c1ccccc1 (stereo not given)
Measured Target: Cellular tumor antigen p53 (Homo sapiens)
Assigned Category: 0
--
Compound: CN1CCC(c2c(O)cc(O)c3c(=O)cc(-c4ccccc4Cl)oc23)C1CO (stereo not given)
Measured Target: Cellular tumor antigen p53 (Homo sapiens)
Assigned Category: 0
--
Compound: COC(=O)c1c(NC(=O)CC2SC(=N)NC2=O)sc(C)c1C (stereo not given)
Measured Target: Cellular tumor antigen p53 (Homo sapiens)
Assigned Category: 0
--
Compound: CC(C)CC(C(=O)NC(Cc1ccc(OCc2ccccc2)cc1)C(=O)NC(C)(C)C)N(C)Cc1ccc(C(C)(C)C)cc1 (stereo not given)
Measured Target: Cellular tumor antigen p53 (Homo sapiens)
Assigned Category: 0
--
Compound: O=C1CN2Cc3c(ccc(Cl)c3Cl)N=C2N1
Measured Target: Cellular tumor antigen p53 (Homo sapiens)
Assigned Category: 1
--
Compound: OCC1OC(n2cnc3c2NC=NCC3O)CC1O (stereo not given)
Measured Target: Cellular tumor antigen p53 (Homo sapiens)
Assigned Category: 0
--
Compound: OCc1c[nH]c2ccccc12
Measured Target: Cellular tumor antigen p53 (Homo sapiens)
Assigned Category: 0
--
Compound: NC(=O)c1ccc(-c2nc(-c3ccc4c(c3)OCCO4)c(-c3ccccn3)[nH]2)cc1
Measured Target: Cellular tumor antigen p53 (Homo sapiens)
Assigned Category: 0

====

Catalogue of p53-positive nuclei, normalised readings, one per entry.
Measured Target: Cellular tumor antigen p53 (Homo sapiens)
Assay Text: nuclear p53 accumulation, HPV+ cells – imaging, p53-positive nuclei imaging, 24 h, 48 h (AID 1508601)
Run Conditions: 24/48 h, hits give high values, concentration not given here
About 85 (1%) of roughly 5,700 compounds were called active. The full list was thinned out, with actives kept by preference.

Item Smiles: CCCCCC(=O)/C=C/[C@H]1[C@H](O)CC(=O)[C@@H]1CCCCCCC(=O)O
p53-positive nuclei, normalised: -0.0323% (inactive)
--
Item Smiles: Cc1cc(C)c(/C=C2\C(=O)Nc3ccccc32)[nH]1
p53-positive nuclei, normalised: 0.0559% (inactive)
--
Item Smiles: Nc1ccccc1NC(=O)c1ccc(CNC(=O)OCc2cccnc2)cc1
p53-positive nuclei, normalised: 0.78% (inactive)
